Please respond with reported yeast fitness for every item in the list.
B1: tRNA (parent)
chain: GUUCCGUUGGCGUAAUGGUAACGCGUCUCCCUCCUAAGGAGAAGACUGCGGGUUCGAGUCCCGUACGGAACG

Variants of: B1
Experiment: yeast fitness relative to wild type (ratio to wild type); higher = fitter; tRNA-Arg(CCU), competitive growth, 37 C, YPD
Variants at the floor of the assay were thinned out.

# variant GUUCCGUUGGCGUAAUGGUAACGCGUCUCCCUCCUAAGGAGAAGACUGCGGGUUCGGGUCCCGUACGGACCG [A57G A70C] ; its yeast fitness = 0.859

# variant GUUCCGUUGGCGUAACGGUAACGCGUCUCCCUCCUAAGGAGAAGACUCCGGGUUCGAGUCCCGUACGGAACG [U16C G48C] ; its yeast fitness = 0.894

# variant GUUCCGUUGGCGUAAUGGUAACGCGUCUCCCUCGUAAGGGGAAGAGUGAGGGUUCGAGCCCCGUACGGAACG [C34G A40G C46G C49A U59C] ; its yeast fitness = 0.55

# variant GUUCCGUUCGCGUAAUAGUAACGCGUUUCCCUCCUAAGGAGAAGACUGCGGGUACGAGUCCCGUACGGAACG [G9C G17A C27U U54A] ; its yeast fitness = ≤ 0.5

# variant GUUCCGUUGGCGUUAUGGUAACGCGUCUCCUUCCUAAGGAGAAGACUGCGAGUUCGAGUCCCCUACGGAACG [A14U C31U G51A G63C] ; its yeast fitness = ≤ 0.5

# variant GUUCCGUUGGCGUAAAGGUAACGCGUCUCCCUCCUAAGGAGCAGACUGCGGGUUCGAGUCCCGUACGGAACG [U16A A42C] ; its yeast fitness = 0.854

# variant GUACCGUUGGCGUAAUGGUAACGCGUCUCCCUCCUAAGGAGAAGAGUGCGGGUUCGAGUCCCGUACGGAACG [U3A C46G] ; its yeast fitness = 0.982

# variant GUUCCGUUGGCGUAAUGGUAACGCGUCUCCCUCCUGAGGAGAAGACUGCGGGUACGAGUCCCGUACGGAACG [A36G U54A] ; its yeast fitness = 0.691

# variant GUUCCGUCGGCGAAAUGGUAAAGCGUCUCCCUCCUAAGGAGUAGACUGCGGGUUCGAGUCCCGUACGGAACG [U8C U13A C22A A42U] ; its yeast fitness = ≤ 0.5

# variant GUUCCGUUGGCGUAAUGGUAACGCAUCUCCAUCCUAAGGAGAAGCCUGCAGGUUCGAGUCCCGUACGGAACG [G25A C31A A45C G50A] ; its yeast fitness = 0.536

# variant GUUCCGUUGGCGUAAUGGUAACGCGUCUCCCUCCUAAGGAGAAGACCGCGGGUUCGAGUCCCGUACGCAACG [U47C G68C] ; its yeast fitness = 0.742
